Test: NCI Yeast Anticancer Drug Screen. Data for the mlh1 strain (AID 171);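 also: 0% = growth of vehicle-treated control cultures of the same strain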
Details: S. cerevisiae mlh1 strain growth inhibition; at 1.2 µM; stronger effect = higher value
Method: Growth inhibition of yeast strains with defined genetic alterations is measured as a screen for potential anti-cancer activity. Selected strains with alterations in DNA damage repair or cell cycle control were exposed to compounds and growth inhibition was measured relative to vehicle treated controls. The strain used in this assay is mlh1
This is part of a sample that, as a whole, favours compounds with a hit. Of some 79,000 tested, about 15% had one in any assay.
Listed next: entries and their corresponding growth inhibition.
Respond numerically; units are % and should not be typed.

Some molecules with recorded growth inhibition:
molecule="COC(=O)C1=C(C(=O)OC)C2(C)C=CC1O2 (stereo not given)" result_value=-14
molecule=N#Cc1c(N)[nH]c2ccc(Sc3ccccc3)cc12 result_value=-1
molecule=CCOC(=O)c1cc([N+](=O)[O-])cc([N+](=O)[O-])c1Sc1ncnc2nc[nH]c12 result_value=-31
molecule=c1ccc(-c2nc3cccnc3s2)cc1 result_value=2
molecule=CCC(=O)c1cccc2ccccc12 result_value=3
molecule=O=C1c2ccccc2C(=O)c2c(NC3CCCCC3)ccc(Nc3ccc(S(=O)(=O)O)cc3)c21 result_value=-2
molecule=NC1=NS(=O)(=O)N=C(N)C1=Cc1ccc([N+](=O)[O-])o1 result_value=-7
molecule="COC1=CC(=O)C2C(C1=O)C(c1ccc(Cl)cc1)[C@@H]2C (stereo not given in full)" result_value=20

Query block: Given O=C1Nc2ccc(Cl)c(I)c2C1=O , state its recorded growth inhibition.
Result block: 31

Query block: Given COc1ccc(/C=C/C(=O)C(C)(C)Br)cc1 , state its recorded growth inhibition.
Result block: 5

* * *

Experiment: NCI Yeast Anticancer Drug Screen. Data for the rad14 strain (AID 159);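 also: 0% = growth of vehicle-treated control cultures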
Conditions: S. cerevisiae rad14 strain growth inhibition; at 100.0 µM
Experimental: Growth inhibition of yeast strains with defined genetic alterations is measured as a screen for potential anti-cancer activity. Selected strains with alterations in DNA damage repair or cell cycle control were exposed to compounds and growth inhibition was measured relative to vehicle treated controls. The strain used in this assay is rad14
This is part of a sample that, as a whole, favours compounds with a hit. Of some 79,000 tested, about 15% had one in any assay. Activity calls are given as the source filed them. Cut-off read from the data, not from the text of the source: active = growth inhibition above about 70%; inactive = the rest.
Classes to choose from: y for active, n for inactive

compound_smiles=COC(=O)c1ccc(NCC2=CC(=O)C=CC2=O)cc1O class_name=y
compound_smiles=CNC(=O)OCc1c(COC(=O)NC)c(-c2ccc(-c3ccccc3)cc2)n(C)c1C class_name=y
compound_smiles=Clc1cccc(C(Nc2nncs2)Nc2nncs2)c1Cl class_name=y
compound_smiles=c1ccc(-c2nc3cccnc3s2)cc1 class_name=n

Moving on to the next molecule.
Query block: Dear colleague, could you share the recorded outcome for O=[N+]([O-])c1cc2no[n+]([O-])c2cc1N1CCCCC1 when you have a moment?
Result block: y

* * *

Listed next: entries and their corresponding growth inhibition.
Test: NCI Yeast Anticancer Drug Screen. Data for the rad50 strain (AID 155);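 also: 0% = growth of vehicle-only cultures of the same strain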
Settings: S. cerevisiae rad50 strain growth inhibition; at 11.0 µM; stronger effect = higher value
About 79,000 compounds went through this panel and 15% of them were active in at least one assay; those are over-represented in the sample as a whole. Active and inactive are the calls of the source. Rule as the data show it: active = growth inhibition above about 70%; inactive = the rest.

molecule=CC[n+]1ccc2c(C)c3[nH]c4ccc(O)cc4c3c(C)c2c1 result_value="65% (inactive)"
molecule="O=C(Nc1ccccc1)C(=O)C(C(=O)c1ccccc1)C(c1ccccc1)c1ccccc1 (stereo not given)" result_value="-3% (inactive)"
molecule=COc1ccc(/C(C)=N/OC(=O)c2c(-c3ccccc3Cl)noc2C)cc1CN1CCOCC1 result_value="-20% (inactive)"
molecule=N#CN=Nc1cc(Cl)c(N=NC#N)cc1Cl result_value="-7% (inactive)"
molecule=CCOc1ccc2c(c1)c(CC(=O)O)cn2C result_value="48% (inactive)"
molecule=COc1cccc2nc3ccccc3nc12 result_value="45% (inactive)"
molecule=CCCc1cc(C(=O)OCC)cc(CCC)c1O result_value="16% (inactive)"
molecule=Nc1ccc2c(c1)C(=O)c1cccc(N)c1C2=O result_value="92% (active)"
molecule=CSc1nc(=S)[nH]c2c1c(C)nn2-c1ccccc1 result_value="11% (inactive)"

Moving on to the next molecule.
Query block: Given O=Cc1cccc2ccc3ccccc3c12 , state its recorded growth inhibition.
Result block: 12% (inactive)
